Just for reference, ChEMBL document CHEMBL6074682 is where these values come from.

Test system: Staphylococcus aureus
protocol description: Antibacterial activity against methicillin-resistant Staphylococcus aureus ATCC USA 300 clinical isolate assessed as bacterial growth inhibition at 256 to 0.125 ug/ml in CAMH broth medium incubated for 16 to 20 hrs by broth microdilution method
Format: functional
cond: dose 256-0.125 µg/ml, time 16-20 hrs
Peptide text beside a SMILES is read from it.
Labelling: MIC reported below 7 µg/mL becomes label 1; at or above becomes label 0.

# compound, label class
records = [
    ("CC(C)C[C@@H]1NC(=O)[C@H](CCCN)NC(=O)[C@H](C(C)(C)C)NC(=O)[C@@H]2CCCN2C(=O)[C@@H](Cc2ccccc2)NC(=O)[C@H](CC(C)C)NC(=O)[C@H](CCCN)NC(=O)[C@H](C(C)C)NC(=O)[C@@H]2CCCN2C(=O)[C@@H](Cc2ccccc2)NC1=O (HELM PEPTIDE1{L.[dF].P.[CC(C)(C)[C@H](N[*:1])C(=O)[*:2]].[Orn].L.[dF].P.V.[Orn]}$PEPTIDE1,PEPTIDE1,1:R1-10:R2$$$V2.0)", "label 1"),
    ("CC(C)C[C@@H]1NC(=O)[C@H](CCCN)NC(=O)[C@H](C(C)C)NC(=O)[C@@H]2CCCN2C(=O)[C@@H](Cc2ccccc2)NC(=O)[C@H](CC(C)C)NC(=O)[C@H](CCCN)NC(=O)[C@H](C(C)C)NC(=O)[C@@H]2CCCN2C(=O)[C@@H](Cc2ccccc2)NC1=O [GRAMICIDIN S] (HELM PEPTIDE1{L.[dF].P.V.[Orn].L.[dF].P.V.[Orn]}$PEPTIDE1,PEPTIDE1,1:R1-10:R2$$$V2.0)", "label 1"),
    ("CC(C)C[C@@H]1NC(=O)[C@H](CCCN)NC(=O)[C@H](C(C)C)NC(=O)[C@@H]2CCCN2C(=O)[C@@H](Cc2ccccc2)NC(=O)[C@H](CC(C)C)NC(=O)[C@H](CCCN)NC(=O)[C@H](C(C)C)NC(=O)[C@H](Cc2c[nH]c3ccccc23)NC(=O)[C@@H](Cc2c[nH]c3ccccc23)NC1=O (HELM PEPTIDE1{L.[dF].P.V.[Orn].L.[dW].W.V.[Orn]}$PEPTIDE1,PEPTIDE1,1:R1-10:R2$$$V2.0)", "label 1"),
    ("CC(C)C[C@@H]1NC(=O)[C@H](CCCN)NC(=O)[C@H](C(C)C)NC(=O)[C@@H]2CCCN2C(=O)[C@@H](CCCNC(=N)N)NC(=O)[C@H](CC(C)C)NC(=O)[C@H](CCCN)NC(=O)[C@H](C(C)C)NC(=O)[C@H](Cc2c[nH]c3ccccc23)NC(=O)[C@@H](Cc2ccccc2)NC1=O (HELM PEPTIDE1{L.[dF].W.V.[Orn].L.[dR].P.V.[Orn]}$PEPTIDE1,PEPTIDE1,1:R1-10:R2$$$V2.0)", "label 1"),
    ("CC(C)C[C@@H]1NC(=O)[C@H](CCCN)NC(=O)[C@H](C(C)C)NC(=O)[C@H](Cc2c[nH]c3ccccc23)NC(=O)[C@@H](Cc2c[nH]c3ccccc23)NC(=O)[C@H](CC(C)C)NC(=O)[C@H](CCCN)NC(=O)[C@H](C(C)C)NC(=O)[C@H](Cc2c[nH]c3ccccc23)NC(=O)[C@@H](Cc2ccccc2)NC1=O (HELM PEPTIDE1{L.[dF].W.V.[Orn].L.[dW].W.V.[Orn]}$PEPTIDE1,PEPTIDE1,1:R1-10:R2$$$V2.0)", "label 0"),
    ("CC(C)C[C@@H]1NC(=O)[C@H](CCCN)NC(=O)[C@H](C(C)C)NC(=O)[C@H](Cc2c[nH]c3ccccc23)NC(=O)[C@@H](Cc2ccccc2)NC(=O)[C@H](CC(C)C)NC(=O)[C@H](CCCN)NC(=O)[C@H](C(C)C)NC(=O)[C@H](Cc2c[nH]c3ccccc23)NC(=O)[C@@H](CCCNC(=N)N)NC1=O (HELM PEPTIDE1{L.[dF].W.V.[Orn].L.[dR].W.V.[Orn]}$PEPTIDE1,PEPTIDE1,1:R1-10:R2$$$V2.0)", "label 1"),
    ("CC(C)C[C@@H]1NC(=O)[C@H](CCCN)NC(=O)[C@H](C(C)C)NC(=O)[C@H](Cc2c[nH]c3ccccc23)NC(=O)[C@@H](Cc2c[nH]c3ccccc23)NC(=O)[C@H](CC(C)C)NC(=O)[C@H](CCCN)NC(=O)[C@H](C(C)C)NC(=O)[C@H](Cc2c[nH]c3ccccc23)NC(=O)[C@@H](Cc2c[nH]c3ccccc23)NC1=O", "label 0"),
    ("CC(C)C[C@@H]1NC(=O)[C@H](CCCN)NC(=O)[C@H](C(C)(C)C)NC(=O)[C@@H]2CCCN2C(=O)[C@@H](Cc2ccccc2)NC(=O)[C@H](CC(C)C)NC(=O)[C@H](CCCN)NC(=O)[C@H](C(C)(C)C)NC(=O)[C@@H]2CCCN2C(=O)[C@@H](CCCNC(=N)N)NC1=O (HELM PEPTIDE1{L.[dF].P.[CC(C)(C)[C@H](N[*:1])C(=O)[*:2]].[Orn].L.[dR].P.[CC(C)(C)[C@H](N[*:1])C(=O)[*:2]].[Orn]}$PEPTIDE1,PEPTIDE1,1:R1-10:R2$$$V2.0)", "label 1"),
]
